Where these numbers come from: patent EP4759815A1

# TGT: recombinant human PARP2 protein (Homo sapiens)
# Construct: purchased BPS 80502
# Sequence (Q9UGN5 whole entry): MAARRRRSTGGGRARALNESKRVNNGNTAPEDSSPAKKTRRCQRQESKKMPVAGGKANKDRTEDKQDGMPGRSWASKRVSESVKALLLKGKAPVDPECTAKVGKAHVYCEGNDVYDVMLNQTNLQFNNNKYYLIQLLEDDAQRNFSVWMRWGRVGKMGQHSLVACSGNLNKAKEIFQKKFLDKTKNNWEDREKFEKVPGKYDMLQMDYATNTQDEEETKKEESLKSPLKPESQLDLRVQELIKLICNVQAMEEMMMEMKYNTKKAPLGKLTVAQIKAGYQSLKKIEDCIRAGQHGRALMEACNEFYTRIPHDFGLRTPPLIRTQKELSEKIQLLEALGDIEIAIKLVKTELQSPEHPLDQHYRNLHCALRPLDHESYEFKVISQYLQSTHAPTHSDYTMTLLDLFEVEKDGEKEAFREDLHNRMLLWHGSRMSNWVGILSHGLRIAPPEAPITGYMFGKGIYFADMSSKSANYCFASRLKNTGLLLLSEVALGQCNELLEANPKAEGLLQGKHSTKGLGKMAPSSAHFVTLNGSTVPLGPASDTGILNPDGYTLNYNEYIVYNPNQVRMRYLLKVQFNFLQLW
# EXPERIMENTAL DETAILS: PARP2 inhibitory activity (histone substrate, chemiluminescent ELISA)
# Assay type: biochemical
# EXPERIMENTAL SETUP: histone substrate; read-out: PARP2 IC50
MEASURED METRIC: IC50

Below are worked cases with known answers.
COMPOUND: CNC(=O)c1ccc(N2CCN(Cc3cc4c5c(cnn5c3)N(C3CC3)C(=O)N4)CC2)c(F)n1 [Compound 53]
MEASURED METRIC: IC50
REPORTED VALUE: 45.5 nM
//
COMPOUND: CNC(=O)c1ccc(N2CCN(Cc3cc4c5c(cnn5CC(=O)N4)c3)CC2)c(Cl)n1 [Compound 26]
MEASURED METRIC: IC50
REPORTED VALUE: 1440 nM

Now examine the next entry.
Ask: Param readout= IC50; system= recombinant human PARP2 protein (Homo sapiens); entry= CNC(=O)c1ccc(N2CCN(Cc3cc4c5c(c3)ncn5[C@@H](C3CC3)C(=O)N4)CC2)c(Cl)n1 [Compound 47-1] ; returns value.
Reply: 901 nM
